measured.target: human PAD4 (Homo sapiens (Human), UniProt Q9UM07)
Sequence (Q9UM07 2-663): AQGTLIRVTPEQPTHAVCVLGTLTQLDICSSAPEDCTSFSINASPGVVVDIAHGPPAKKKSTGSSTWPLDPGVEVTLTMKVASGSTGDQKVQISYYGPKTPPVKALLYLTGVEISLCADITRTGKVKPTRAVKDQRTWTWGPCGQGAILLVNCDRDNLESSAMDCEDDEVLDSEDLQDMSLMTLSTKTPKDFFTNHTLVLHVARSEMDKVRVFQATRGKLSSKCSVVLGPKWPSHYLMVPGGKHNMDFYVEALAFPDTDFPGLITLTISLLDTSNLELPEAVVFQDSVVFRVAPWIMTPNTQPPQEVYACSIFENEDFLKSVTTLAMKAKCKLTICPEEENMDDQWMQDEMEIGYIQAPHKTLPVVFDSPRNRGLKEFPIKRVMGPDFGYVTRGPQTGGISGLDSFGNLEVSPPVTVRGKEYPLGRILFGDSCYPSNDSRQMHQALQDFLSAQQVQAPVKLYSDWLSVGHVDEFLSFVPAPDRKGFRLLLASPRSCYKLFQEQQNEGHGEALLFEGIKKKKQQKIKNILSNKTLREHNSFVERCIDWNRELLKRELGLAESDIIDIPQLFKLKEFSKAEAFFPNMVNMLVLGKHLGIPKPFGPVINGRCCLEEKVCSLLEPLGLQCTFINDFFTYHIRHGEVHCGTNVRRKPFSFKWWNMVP
assay.overview: In Vitro PAD4 BAEE Biochemical Assay
condition.context: human PAD4, BAEE substrate; 5 nM PAD4, 2 mM calcium chloride, 3 mM BAEE; geometric mean of multiple experiments
# IC50 values compiled below
endpoint: IC50 (nM)

>>> reported_measurement("COc1cc(C(=O)N2CCC[C@@H](N)C2)cc2nc(-c3cc4ccc(N(C5CC5)S(C)(=O)=O)nc4n3CC3CC3)n(C)c12")
88.5
>>> reported_measurement("COc1cc(C(=O)N2C[C@H](N)CCN2C)cc2nc(-c3cc4ccc([C@@H](C)NC(=O)c5ccccc5C)nc4n3CC3CC3)n(C)c12")
123
>>> reported_measurement("COc1cc(C(=O)N2[C@H]3CC[C@@H]2[C@H](N)C3)cc2nc(-c3cc4ccc([C@@H](C)NC(=O)C56CC(F)(C5)C6)nc4n3CC3CC3)n(C3CC3)c12")
45.1
>>> reported_measurement("CCN(c1ccc2cc(-c3nc4cc(C(=O)N5CC(N)CCC5C)cc(OC)c4n3C)n(CC3CC3)c2n1)S(C)(=O)=O (centres unmarked)")
173
>>> reported_measurement("COc1cc(C(=O)N2CCC[C@@H](N)C2)cc2nc(-c3cc4cc(F)c([C@@H](C)NC(=O)c5cnn(C(F)F)c5)cc4n3CC3CC3)n(C)c12")
102
>>> reported_measurement("COc1cc(C(=O)N2CCC[C@@H](N)C2)cc2nc(-c3cc4ccc(N(C)S(=O)(=O)c5ccccc5)nc4n3CC3CC3)n(C)c12")
225
>>> reported_measurement("COc1cc(C(=O)N2CC[C@@H](O)[C@@H](N)C2)cc2nc(-c3cc4ccc(N(C(F)F)S(C)(=O)=O)nc4n3CC3CC3)n(C)c12")
141
>>> reported_measurement("COc1cc(C(=O)N2[C@H]3CC[C@@H]2[C@H](N)C3)cc2nc(-c3cc4ccc([C@@H](C)NC(=O)c5ccccc5)cc4n3CC3CC3)n(C)c12")
27.6
>>> reported_measurement("C#CC(=O)N[C@@H]1CNC[C@H]1NC(=O)c1cc(OC)c2c(c1)nc(-c1cc3ccc(N(C(F)F)S(C)(=O)=O)nc3n1CC1CC1)n2C")
4630
>>> reported_measurement("COc1cc(C(=O)N2[C@H]3CC[C@@H]2[C@H](N)C3)cc2nc(-c3cc4ccc(N5[C@@H](C)CCCS5(=O)=O)nc4n3CC3CC3)n(C)c12")
22.3
>>> reported_measurement("COc1cc(C(=O)N2CCC[C@@H](N)C2)cc2nc(-c3cc4ccc(-c5cccnc5-c5csc(N6CCCCC6)n5)nc4n3CC3CC3)n(C)c12")
351
>>> reported_measurement("COc1cc(C(=O)N2CCC[C@@H](N)C2)cc2nc(-c3cc4ccc(N(C)S(C)(=O)=O)nc4n3CC3CC3)n(C)c12")
122
>>> reported_measurement("COc1cc(C(=O)N2C[C@H](N)CCN2C)cc2nc(-c3cc4ccc([C@@H](C)NC(=O)[C@@H]5CC5(F)F)nc4n3CC3CC3)n(C)c12")
102
>>> reported_measurement("COc1cc(C(=O)N2C[C@H](N)CCN2C)cc2nc(-c3cc4ccc([C@@H](C)NC(=O)C5(CF)CC5)nc4n3CC3CC3)n(C)c12")
89.7
>>> reported_measurement("COc1cc(C(=O)N2C[C@H](N)CCN2C)cc2nc(-c3cc4ccc([C@@H](C)NC(=O)c5ccccc5C(F)F)nc4n3CC3CC3)n(C)c12")
180
>>> reported_measurement("COc1cc(C(=O)N2[C@H]3CC[C@@H]2[C@H](N)C3)cc2nc(-c3cc4ccc([C@@H](C)NC(=O)C(C)(C)OC)cc4n3CC3CC3)n(C)c12")
26.1
>>> reported_measurement("COc1cc(C(=O)N2C[C@H](N)CC[C@@H]2C)cc2nc(-c3cc4ccc(-c5c(C)ccnc5-c5cnc(C)s5)nc4n3CC3CC3)n(C)c12")
386
>>> reported_measurement("COc1cc(C(=O)N2C[C@H](N)CCN2C)cc2nc(-c3cc4ccc([C@@H](C)NC(=O)c5cc(C)nc(C)c5)nc4n3CC3CC3)n(C)c12")
77.5
>>> reported_measurement("COc1cc(C(=O)N2CCCC3(CCN3)C2)cc2nc(-c3cc4ccc(N(C(F)F)S(C)(=O)=O)nc4n3CC3CC3)n(C)c12 (centres unmarked)")
50000
>>> reported_measurement("COc1cc(C(=O)N2[C@H]3CC[C@@H]2[C@H](N)C3)cc2nc(-c3cc4ccc(N5[C@@H](C)CCCS5(=O)=O)nc4n3CC3CC3)n(C3CC3)c12")
42
>>> reported_measurement("COc1cc(C(=O)N2C[C@H](N)[C@@H]3CC[C@H]2C3)cc2nc(-c3cc4ccc([C@@H](C)NC(=O)[C@H]5CC5(F)F)nc4n3CC3CC3)n(C)c12")
54.9
>>> reported_measurement("COc1cc(C(=O)N2C[C@H](N)CC[C@@H]2C)cc2nc(-c3cc4ccc(N5C(=O)CC[C@@H]5C)nc4n3CC3CC3)n(C)c12")
322
>>> reported_measurement("COc1cc(C(=O)N2[C@H]3CC[C@@H]2[C@H](N)C3)cc2nc(-c3cc4ccc([C@H]5CCCN5C(C)=O)nc4n3CC3CC3)n(C)c12")
36.7

====

measured.target: human PAD4 (Homo sapiens (Human))
assay.overview: In Vitro PAD4 BAEE Biochemical Assay
condition.context: human PAD4, BAEE substrate; 5 nM PAD4, 2 mM calcium chloride, 3 mM BAEE; geometric mean of multiple experiments
pIC50: −log10 of the molar value.
Let's look at some molecules and their measured pIC50.
endpoint: pIC50

>>> reported_measurement("COc1cc(C(=O)N2CCC[C@@H](N)[C@H]2C)cc2nc(-c3cc4ccc(N(C)S(C)(=O)=O)nc4n3CC3CC3)n(C)c12 [Example 4]")
6.83
>>> reported_measurement("CCN(c1ccc2cc(-c3nc4cc(C(=O)N5CCC[C@@H](N)[C@H]5C)cc(OC)c4n3CCOC)n(CC3CC3)c2n1)S(C)(=O)=O [Example 41]")
6.64
>>> reported_measurement("COc1cc(C(=O)N2[C@H]3CC[C@@H]2[C@H](N)C3)cc2nc(-c3cc4ccc([C@@H](C)NC(=O)C56CC(F)(C5)C6)nc4n3CC3CC3)n(C)c12 [Example 121]")
7.33
>>> reported_measurement("CNC(=O)N(C)c1ccc2cc(-c3nc4cc(C(=O)N5CCC[C@@H](N)C5)cc(OC)c4n3C)n(CC3CC3)c2n1 [Example 116]")
6.30
>>> reported_measurement("COc1cc(C(=O)N2C[C@H](N)CCN2C)cc2nc(-c3cc4ccc([C@@H](C)NC(=O)C5(C(F)F)CC5)nc4n3CC3CC3)n(C)c12 [Example 191]")
7.08
>>> reported_measurement("COc1cc(C(=O)N2C[C@H](N)[C@@H]3CC[C@H]2C3)cc2nc(-c3cc4ccc([C@@H](C)NC(=O)C5CC(F)(F)C5)nc4n3CC3CC3)n(C)c12 [Example 228]")
7.08
>>> reported_measurement("COC(=O)Nc1ccc2cc(-c3nc4cc(C(=O)N5CCC[C@@H](N)C5)cc(OC)c4n3C)n(CC3CC3)c2n1 [Example 108]")
5.24
>>> reported_measurement("COc1cc(C(=O)N2C[C@H](N)CCN2C)cc2nc(-c3cc4ccc([C@@H](C)NC(=O)c5nc(C)cc(C(F)(F)F)n5)nc4n3CC3CC3)n(C)c12 [Example 183]")
6.70
>>> reported_measurement("COc1cc(C(=O)N2C[C@H](N)CCN2C)cc2nc(-c3cc4ccc([C@@H](C)NC(=O)c5cccnc5)nc4n3CC3CC3)n(C)c12 [Example 201]")
7.17
>>> reported_measurement("COc1cc(C(=O)N2[C@H]3CC[C@@H]2[C@H](N)C3)cc2nc(-c3cc4ccc([C@@H](C)NC(=O)N5CCCC5)nc4n3CC3CC3)n(C)c12 [Example 234]")
7.46
>>> reported_measurement("COc1cc(C(=O)N2CCC[C@@H](N)C2)cc2nc(-c3cc4ccc(N(C(F)F)S(C)(=O)=O)nc4n3CC3CC3)n(C)c12 [Example 18]")
7.08
>>> reported_measurement("C[C@H](CN)NC(=O)c1cc2nc(-c3cc4ccc(N(C(F)F)S(C)(=O)=O)nc4n3CC3CC3)n(C)c2cc1F [Example 94]")
4.58

====

measured.target: human PAD4 (Homo sapiens (Human))
assay.overview: In Vitro PAD4 BAEE Biochemical Assay
condition.context: human PAD4, BAEE substrate; 5 nM PAD4, 2 mM calcium chloride, 3 mM BAEE; geometric mean of multiple experiments
endpoint: IC50 (nM)

>>> reported_measurement("COc1cc(C(=O)N2C[C@H](N)CCN2C)cc2nc(-c3cc4ccc([C@@H](C)NC(=O)c5c(C)cccc5C)nc4n3CC3CC3)n(C)c12")
147
>>> reported_measurement("COc1cc(C(=O)N2C[C@H](N)[C@@H]3CC[C@H]2C3)cc2nc(-c3cc4ccc([C@@H](C)NC(=O)C56CC(Cl)(C5)C6)nc4n3CC3CC3)n(C)c12")
83.3
>>> reported_measurement("COc1cc(C(=O)N2C[C@H](N)CC[C@@H]2C)cc2nc(-c3cc4ccc(-c5cccnc5N5CCCC5)nc4n3CC3CC3)n(C)c12")
687
>>> reported_measurement("COc1cc(C(=O)N2C[C@H](N)CCN2C)cc2nc(-c3cc4ccc([C@@H](C)NC(=O)c5cccc(F)c5C)nc4n3CC3CC3)n(C)c12")
170
>>> reported_measurement("COc1cc(C(=O)N2[C@H]3CC[C@@H]2[C@H](N)C3)cc2nc(-c3cc4ccc([C@@H](C)NC(=O)c5ccccc5)nc4n3CC3CC3)n(C3CC3)c12")
86
>>> reported_measurement("CCN(C(=O)OC)c1ccc2cc(-c3nc4cc(C(=O)N5CCC[C@@H](N)C5)cc(OC)c4n3C)n(CC3CC3)c2n1")
234

All figures here come from patent US11878965B2.
